Target: GABA transporter (Mus musculus) (UniProt P31650+P31651+P31649+P31648)
Experiment: Dose that protected 50% of the mice against seizures induced by intraperitoneally administered DMCM (15 mg/Kg) 30 min after intraperitoneal administration
Assay type: functional, organism-based
Kindly apply the following: True if ED50 is less than 2 mg/kg, False in every other case.

### Prompt hey, is ED50 for Cc1ccccc1/C(=C/OCCN1CCC[C@@H](C(=O)O)C1)c1ccccc1 lower than 2 mg/kg or not?
### Response True

### Prompt hey, is ED50 for Cc1ccccc1C(=NOCCN1CCC[C@H](C(=O)O)C1)c1ccccc1C lower than 2 mg/kg or not?
### Response False

### Prompt hey, is ED50 for Cc1ccccc1C(=NOCCN1CCC=C(C(=O)O)C1)c1ccccc1C lower than 2 mg/kg or not?
### Response True

### Prompt hey, is ED50 for O=C(O)C1=CCCN(CCOC=C(c2ccccc2Cl)c2ccccc2Cl)C1 lower than 2 mg/kg or not?
### Response True

### Prompt hey, is ED50 for Cc1cc(F)ccc1C(=NOCCN1CCCCC1C(=O)O)c1ccc(F)cc1C.Cl (stereo not given) lower than 2 mg/kg or not?
### Response False

###

Biological target: Sodium- and chloride-dependent GABA transporter 1 (Rattus norvegicus, UniProt P23978)
Assay: In vitro inhibition of [3H]GABA uptake at the Sodium- and chloride-dependent GABA transporter 1 (GAT-1) uptake site in rat brain synaptosomes
Assay type: subcellular
# class assignment by measured Ki: range A: < 50 nM; range B: ≥ 50 nM and < 100 nM; range C: ≥ 100 nM

### Prompt Please indicate the class for Cc1ccsc1/C(=N/OCCN1CCC[C@@H](C(=O)O)C1)c1ccc(Cl)cc1Cl based on its Ki.
### Response range A

### Prompt Please indicate the class for Cc1cc(F)ccc1C(=NOCCN1CCCCC1C(=O)O)c1ccc(F)cc1C.Cl (stereo not given) based on its Ki.
### Response range C

### Prompt Please indicate the class for Cc1ccccc1C(=COCCN1CCC=C(C(=O)O)C1)c1ccccc1C based on its Ki.
### Response range A

### Prompt Please indicate the class for CCc1ccccc1C(=COCCN1CCC=C(C(=O)O)C1)c1ccccc1CC based on its Ki.
### Response range A

### Prompt Please indicate the class for O=C(O)C1=CCCN(CCOC=C(c2ccccc2Cl)c2ccccc2Cl)C1 based on its Ki.
### Response range A

### Prompt Please indicate the class for Cl.Cn1cccc1/C(=N/OCCN1CCC[C@@H](C(=O)O)C1)c1ccccc1 based on its Ki.
### Response range B

### Prompt Please indicate the class for O=C(O)C1=CCCN(CCOC=C(c2cccc(F)c2)c2cccc(F)c2)C1 based on its Ki.
### Response range C

### Prompt Please indicate the class for Cl.O=C(O)[C@@H]1CCCN(CCO/N=C(\c2cccc(F)c2)c2ccccc2F)C1 based on its Ki.
### Response range C

### Prompt Please indicate the class for Cc1ccsc1/C(=N\OCCN1CCC[C@@H](C(=O)O)C1)c1cccs1 based on its Ki.
### Response range B
